Provenance of the data: patent US9328106B2

molecular target: PIM1 (Homo sapiens (Human), UniProt P11309); experiment: biochemical; type: biochemical; details: 20 pM PIM1, 1 μM FAM-peptide, 10 μM ATP, 90 minutes at room temperature; read-out: PIM1 LC3K (KI)
Sequence (P11309 whole entry): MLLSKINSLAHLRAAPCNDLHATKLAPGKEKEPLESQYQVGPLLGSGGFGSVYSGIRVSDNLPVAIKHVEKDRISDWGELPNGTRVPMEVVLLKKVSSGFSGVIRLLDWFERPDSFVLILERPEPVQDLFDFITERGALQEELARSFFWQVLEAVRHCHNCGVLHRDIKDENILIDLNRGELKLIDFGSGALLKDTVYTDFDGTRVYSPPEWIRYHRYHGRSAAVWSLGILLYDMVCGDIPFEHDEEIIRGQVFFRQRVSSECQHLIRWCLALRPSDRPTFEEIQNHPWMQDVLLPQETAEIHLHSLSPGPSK
pKi: −log10 of the molar value.
Response key: y means pKi >= 10; n means pKi < 10.

[
  {
    "COMPOUND": "COC(C)c1cc(F)c(-c2nc(C(=O)Nc3cnn(C)c3[C@@H]3CC[C@@H](N)[C@@H](F)CO3)ccc2F)c(F)c1 (stereo partly shown) [Example 211]",
    "CLASS": "y"
  },
  {
    "COMPOUND": "Cc1cccnc1-c1nc(C(=O)Nc2cnn(C)c2[C@@H]2CC[C@@H](N)[C@H](F)CO2)c(N)s1 [Example 398]",
    "CLASS": "y"
  },
  {
    "COMPOUND": "Cn1ncc(NC(=O)c2nc(-c3c(F)cccc3F)sc2N)c1C1CC[C@H](N)[C@H](F)CO1 (stereo partly shown) [Example 131]",
    "CLASS": "n"
  },
  {
    "COMPOUND": "Cn1ncc(NC(=O)c2csc(-c3c(F)cc(C4(O)CCC4)cc3F)n2)c1[C@@H]1CC[C@@H](N)[C@H](F)CO1 [Example 295]",
    "CLASS": "y"
  },
  {
    "COMPOUND": "Cn1ncc(NC(=O)c2csc(-c3c(F)cncc3Cl)n2)c1[C@@H]1CC[C@@H](N)[C@H](F)CO1 [Example 349]",
    "CLASS": "n"
  },
  {
    "COMPOUND": "COc1cc(F)c(-c2nc(C(=O)Nc3cnn(C)c3[C@@H]3CC[C@@H](N)[C@@H](OC)CO3)cs2)c(F)c1 [Example 265]",
    "CLASS": "y"
  }
]
